Catalogue of pIC50 readings, one per entry.
study-target: human TLR7 (Homo sapiens)
Construct: host or cells: HEK-Blue cells
Sequence (Q9NYK1 27-1049): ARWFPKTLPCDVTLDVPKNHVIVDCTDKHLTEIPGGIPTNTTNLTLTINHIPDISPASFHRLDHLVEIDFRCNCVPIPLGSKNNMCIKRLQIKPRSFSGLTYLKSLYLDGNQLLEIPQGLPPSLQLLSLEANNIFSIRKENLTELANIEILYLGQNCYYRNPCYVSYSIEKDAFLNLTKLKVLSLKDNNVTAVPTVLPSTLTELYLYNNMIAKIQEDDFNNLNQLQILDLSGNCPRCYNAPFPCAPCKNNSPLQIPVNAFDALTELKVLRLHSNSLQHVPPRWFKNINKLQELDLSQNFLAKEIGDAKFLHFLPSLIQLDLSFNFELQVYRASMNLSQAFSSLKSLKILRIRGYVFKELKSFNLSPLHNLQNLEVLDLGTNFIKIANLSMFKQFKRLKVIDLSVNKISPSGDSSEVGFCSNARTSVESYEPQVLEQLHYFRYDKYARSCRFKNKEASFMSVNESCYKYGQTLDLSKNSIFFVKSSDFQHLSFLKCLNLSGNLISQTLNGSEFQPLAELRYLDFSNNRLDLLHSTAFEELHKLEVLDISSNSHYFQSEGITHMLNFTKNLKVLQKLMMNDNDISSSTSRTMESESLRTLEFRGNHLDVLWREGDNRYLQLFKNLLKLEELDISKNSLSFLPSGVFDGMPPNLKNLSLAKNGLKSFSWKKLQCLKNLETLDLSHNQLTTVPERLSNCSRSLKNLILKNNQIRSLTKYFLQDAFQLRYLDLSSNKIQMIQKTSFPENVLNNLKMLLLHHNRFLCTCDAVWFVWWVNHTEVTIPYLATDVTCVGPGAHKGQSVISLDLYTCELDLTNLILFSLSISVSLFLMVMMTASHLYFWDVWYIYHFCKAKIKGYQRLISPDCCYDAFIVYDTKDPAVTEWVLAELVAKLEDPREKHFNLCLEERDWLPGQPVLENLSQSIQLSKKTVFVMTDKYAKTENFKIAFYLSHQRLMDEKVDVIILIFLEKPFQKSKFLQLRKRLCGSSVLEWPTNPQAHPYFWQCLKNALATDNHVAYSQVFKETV
experiment-summary: TLR7 inhibition reporter assay (HEK-Blue SEAP)
Format: cell-based
conditions: HEK-Blue cells overexpressing human TLR7, stimulated with gardiquimod 7.5 μM, 22 hour incubation
The quantity pIC50 is defined as the negative base-10 logarithm of the molar concentration.

Solved cases below.
- Cc1cc(-c2cc3[nH]nc(C4CCC(N5CCCC5)CC4)c3cc2C(C)C)cn2ncnc12 (single isomer, unassigned) [Example 131]: 8.70
- Cc1cc2c(C3CCC(NC4CC4)CC3)n[nH]c2cc1-c1cc(C)c2ncnn2c1 (stereo not shown) [Example 36]: 8.15
- Cc1cc2c(C3CCN(CC(=O)N(C)C)CC3)n[nH]c2cc1-c1cc(C)c2ncnn2c1: 7.36
- COc1cc(-c2cc3[nH]ncc3cc2C)cn2ncnc12: 6.04
- Cc1cc(-c2cc(C)c3ncnn3c2)cc2[nH]nc(OC3CCC(NCCS(C)(=O)=O)CC3)c12 (stereo not shown) [Example 187]: 7.95
- Cc1cc2c(C3CCC(NCCS(C)(=O)=O)CC3)n[nH]c2cc1-c1cc(C)c2ncnn2c1 (stereo not shown) [Example 31]: 7.40

Entry under review: CCc1cc(-c2cc(C)c3ncnn3c2)cc2[nH]nc(C3CCN(C(=O)CN(C)C)CC3)c12 . Reported pIC50?
8.62

Find the recorded pIC50 belonging to COc1cc(-c2cc(C)c3ncnn3c2)cc2[nH]nc(C3CCNCC3)c12 and report it.
8.24

Entry Cc1cc(-c2cc(C)c3ncnn3c2)cc2[nH]nc(C3CCC(N(C)C)CC3)c12 (stereo not shown) [Example 80] has what pIC50?
8.42

Record request: pIC50 value, item Cc1cc(-c2cc3[nH]nc(C4CCC(N5CC(F)(F)C5)CC4)c3cc2C(C)C)cn2ncnc12 (single isomer, unassigned) [Example 135]
7.81

Item under review: Cc1cc2c(C3CCCNC3)n[nH]c2cc1-c1ccc2ncnn2c1 (stereo not shown) . Reported pIC50?
7.12

Using the record for Cc1cc(-c2cc3[nH]nc(C4CCN(C(C)C)CC4)c3cc2C(C)C)cn2ncnc12 , report its pIC50.
9.30

What value of pIC50 has been recorded for this entry: Cc1cc(-c2cc(C)c3ncnn3c2)cc2[nH]nc(OCCN(C)C)c12
7.72

For Cc1cc(-c2cc(C)c3ncnn3c2)cc2[nH]nc(OC3CCC(NCC(=O)N(C)C)CC3)c12 (single isomer, unassigned) [Example 186] , what is its reported pIC50?
8.62

I have this compound here, CCc1cc2c(C3CCC(N(C)C)CC3)n[nH]c2cc1-c1cc(C)c2ncnn2c1 (single isomer, unassigned) [Example 94] , and I need its recorded pIC50.
8.52

For the compound Cc1cc2c(C3CC(N(C)C)C3)n[nH]c2cc1-c1cc(C)c2ncnn2c1 (single isomer, unassigned) [Example 6] , what pIC50 is on record?
8.03

---

study-target: human TLR9 (Homo sapiens, UniProt Q9NR96)
Sequence (Q9NR96 26-1032): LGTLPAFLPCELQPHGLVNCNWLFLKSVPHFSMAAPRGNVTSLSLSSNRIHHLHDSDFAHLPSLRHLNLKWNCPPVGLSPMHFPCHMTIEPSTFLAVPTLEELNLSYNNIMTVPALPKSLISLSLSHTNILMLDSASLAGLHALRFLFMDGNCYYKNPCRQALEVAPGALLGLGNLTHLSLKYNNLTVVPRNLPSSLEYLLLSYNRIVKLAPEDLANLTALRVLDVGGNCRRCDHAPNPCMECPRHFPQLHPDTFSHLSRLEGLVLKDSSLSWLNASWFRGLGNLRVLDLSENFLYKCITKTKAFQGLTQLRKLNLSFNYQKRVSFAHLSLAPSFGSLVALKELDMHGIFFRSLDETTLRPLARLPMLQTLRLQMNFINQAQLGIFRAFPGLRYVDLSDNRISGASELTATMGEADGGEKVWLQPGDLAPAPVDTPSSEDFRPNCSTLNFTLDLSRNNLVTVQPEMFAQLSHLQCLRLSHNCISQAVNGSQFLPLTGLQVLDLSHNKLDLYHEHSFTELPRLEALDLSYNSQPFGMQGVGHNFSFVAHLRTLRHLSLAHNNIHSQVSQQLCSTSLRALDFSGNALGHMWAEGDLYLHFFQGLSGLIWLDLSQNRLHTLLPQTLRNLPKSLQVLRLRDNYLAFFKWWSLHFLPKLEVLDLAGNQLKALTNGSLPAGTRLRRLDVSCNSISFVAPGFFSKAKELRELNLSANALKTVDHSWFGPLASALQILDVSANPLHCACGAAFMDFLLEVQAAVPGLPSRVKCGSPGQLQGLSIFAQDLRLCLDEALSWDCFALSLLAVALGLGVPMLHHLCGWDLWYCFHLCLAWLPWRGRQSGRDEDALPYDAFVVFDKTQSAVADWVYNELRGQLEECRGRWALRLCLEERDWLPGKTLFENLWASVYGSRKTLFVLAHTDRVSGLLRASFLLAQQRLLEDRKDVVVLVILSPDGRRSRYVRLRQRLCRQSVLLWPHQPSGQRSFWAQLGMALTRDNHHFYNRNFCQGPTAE
experiment-summary: TLR9 inhibition reporter assay (HEK-Blue SEAP)
conditions: HEK-Blue cells overexpressing human TLR9, stimulated with ODN2006 5 nM, 22 hour incubation
readout-name: pIC50
Remember, pIC50 is on a log scale: it is -log10 of the molar concentration.

Solved entries:
- Cc1cc2c(C3CCN(CCS(C)(=O)=O)CC3)n[nH]c2cc1-c1cc(C)c2ncnn2c1: 4.89
- CCc1cc2c(C3CCC(N(C)C)CC3)n[nH]c2cc1-c1cc(C)c2ncnn2c1 (single isomer, unassigned) [Example 94]: 4.99
- Cc1cc(-c2cc3[nH]nc(C4CCC(N5CC(F)C5)CC4)c3cc2C(C)C)cn2ncnc12 (stereo not drawn) [Example 151]: 5.08
- Cc1cc(-c2cc3[nH]nc(C4CCN(C(C)C)CC4)c3cc2C(C)C)cn2ncnc12: 5.25
- Cc1cc2c(N3CCNCC3)n[nH]c2cc1-c1cc(C)c2ncnn2c1: 5.21
- Cc1cc2c(OC3CCC(N(C)C)CC3)n[nH]c2cc1-c1cc(C)c2ncnn2c1 (single isomer, unassigned) [Example 182]: 4.56
- Cc1cc(-c2cc3[nH]nc(C4CCC(N(C)C)CC4)c3cc2C(C)C)cn2ncnc12 (stereo not drawn) [Example 114]: 5.18
- Cc1cc(-c2cc(C)c3ncnn3c2)cc2[nH]nc(OC3CCC(NC4CC4)CC3)c12 (single isomer, unassigned) [Example 189]: 5.63
- Cc1cc(-c2cc3[nH]nc(C4CCC(N5CCC(F)C5)CC4)c3cc2C(C)C)cn2ncnc12 (stereo not drawn) [Example 164]: 5.19
- Cc1cc(-c2ccc3c(NC4CCNCC4)n[nH]c3c2)cn2ncnc12: 5.72

Which pIC50 is reported with human TLR9 (Homo sapiens, UniProt Q9NR96) for this entry: COc1cc(-c2cc(C)c3c(OC4CCC(N(C)C)CC4)n[nH]c3c2)cn2ncnc12 (single isomer, unassigned) [Example 184] ?
5.92

# value lookup — system human TLR9 (Homo sapiens, UniProt Q9NR96), readout pIC50, item CCc1cc2c(C3CCC(NCCS(C)(=O)=O)CC3)n[nH]c2cc1-c1cc(C)c2ncnn2c1 (single isomer, unassigned) [Example 100]
4.76

Form entry - test system: human TLR9 (Homo sapiens, UniProt Q9NR96); read-out: pIC50; compound: Cc1cc(-c2cc3[nH]nc(C4CCN(C(=O)CN(C)C)CC4)c3cc2C(C)C)cn2ncnc12
4.73

Record CCc1cc2c(C3CCNCC3)n[nH]c2cc1-c1cc(C)c2ncnn2c1 : what is its pIC50 with human TLR9 (Homo sapiens, UniProt Q9NR96)?
5.66

Find pIC50 (human TLR9 (Homo sapiens, UniProt Q9NR96)) for the entry Cc1cc(-c2cc3[nH]nc(C4CCC(N5CC6(CCOC6)C5)CC4)c3cc2C(C)C)cn2ncnc12 (stereo not drawn) [Example 158]
5.01

---

Here, each record is paired with measured log10(IC50) data.
study-target: UniProt Q9NR97
Sequence (Q9NR97 27-1041): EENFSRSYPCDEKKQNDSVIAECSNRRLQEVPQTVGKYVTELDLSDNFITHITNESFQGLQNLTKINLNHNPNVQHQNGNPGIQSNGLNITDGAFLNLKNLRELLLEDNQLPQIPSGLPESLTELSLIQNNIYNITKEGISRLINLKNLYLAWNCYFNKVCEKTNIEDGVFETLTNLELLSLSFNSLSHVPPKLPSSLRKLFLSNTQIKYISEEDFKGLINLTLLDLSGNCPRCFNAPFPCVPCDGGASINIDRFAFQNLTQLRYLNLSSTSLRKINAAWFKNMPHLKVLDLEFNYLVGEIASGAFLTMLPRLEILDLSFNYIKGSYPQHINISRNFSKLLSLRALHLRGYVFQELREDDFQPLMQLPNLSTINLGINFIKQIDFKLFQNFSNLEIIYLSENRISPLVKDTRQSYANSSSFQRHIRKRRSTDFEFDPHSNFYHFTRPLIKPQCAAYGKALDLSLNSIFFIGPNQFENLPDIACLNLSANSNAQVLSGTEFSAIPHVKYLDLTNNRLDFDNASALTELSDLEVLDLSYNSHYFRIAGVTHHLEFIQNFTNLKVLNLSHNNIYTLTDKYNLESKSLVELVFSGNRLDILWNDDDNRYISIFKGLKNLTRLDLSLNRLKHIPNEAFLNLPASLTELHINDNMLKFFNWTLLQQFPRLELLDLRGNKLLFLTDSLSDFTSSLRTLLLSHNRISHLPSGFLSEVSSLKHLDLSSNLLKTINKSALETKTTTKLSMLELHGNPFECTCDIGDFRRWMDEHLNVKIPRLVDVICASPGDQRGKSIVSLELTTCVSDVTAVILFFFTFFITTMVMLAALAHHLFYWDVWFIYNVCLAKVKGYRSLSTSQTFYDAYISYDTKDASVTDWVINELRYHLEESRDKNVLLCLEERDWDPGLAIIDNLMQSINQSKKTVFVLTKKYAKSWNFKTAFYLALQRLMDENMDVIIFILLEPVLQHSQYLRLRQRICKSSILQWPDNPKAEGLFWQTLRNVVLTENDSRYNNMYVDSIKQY
experiment-summary: TLR8 inhibition reporter assay (HEK-Blue SEAP)
conditions: HEK-Blue cells overexpressing human TLR8, stimulated with R848 15.9 μM, 22 hour incubation
Friendly reminder: values = log10 of IC50, unit nM.

As a guide, the following entries are already answered.
- Cc1cc(-c2cc(C)c3ncnn3c2)cc2[nH]nc(OC3CCC(NCC(=O)N(C)C)CC3)c12 (single isomer, unassigned) [Example 186]: 0.28
- Cc1cc(-c2cc(C)c3ncnn3c2)cc2[nH]nc(C3CCN(CC(C)(C)O)CC3)c12: 1.04
- CCCN1CCC(c2n[nH]c3cc(-c4cc(C)c5ncnn5c4)c(C)cc23)CC1: -0.10
- CCc1cc2c(C3CCN(C4CCOCC4)CC3)n[nH]c2cc1-c1cc(C)c2ncnn2c1: -0.70
- CCOC1CN(C2CCC(c3n[nH]c4cc(-c5cc(C)c6ncnn6c5)c(C(C)C)cc34)CC2)C1 (single isomer, unassigned) [Example 149]: -0.40

Param readout= log10(IC50); system= UniProt Q9NR97; entry= Cc1cc(-c2cc3[nH]nc(C4CCC(N5CC6(CCOC6)C5)CC4)c3cc2C(C)C)cn2ncnc12 (stereo not shown) [Example 158] ; returns value.
-0.70

Can you look up log10(IC50) on UniProt Q9NR97 for Cc1cc2c(C3CC(N(C)C)C3)n[nH]c2cc1-c1cc(C)c2ncnn2c1 (single isomer, unassigned) [Example 6] ?
-0.52

Request: log10(IC50), test system UniProt Q9NR97, entry Cc1cc2c(NCCN3CCCC3)n[nH]c2cc1-c1cc(C)c2ncnn2c1
0.28

Notebook: pull reported log10(IC50) for UniProt Q9NR97, entry Cc1cc2c(C3CCN(CCS(C)(=O)=O)CC3)n[nH]c2cc1-c1cc(C)c2ncnn2c1
0.40

Form field: log10(IC50) recorded for Cc1cc2c(C3CCNCC3)n[nH]c2cc1-c1cc(C)c2ncnn2c1C with UniProt Q9NR97 (enter value)
0.74

Param readout= log10(IC50); system= UniProt Q9NR97; entry= COc1ccc(-c2cc3[nH]nc(C4CCCNC4)c3cc2C)cc1OC (stereo not shown) ; returns value.
0.72

Item Cc1cc(-c2cc3[nH]nc(C4CCC(N5CCC5)CC4)c3cc2C(C)C)cn2ncnc12 (single isomer, unassigned) [Example 139] with UniProt Q9NR97 - log10(IC50)?
-1.00

Give recorded log10(IC50) with UniProt Q9NR97 for the following molecule: Cc1cc(-c2cc3[nH]nc(C4CCN(CC(=O)N(C)C)CC4)c3cc2C(C)C)cn2ncnc12
-0.52

Record lookup: for UniProt Q9NR97, what log10(IC50) belongs to Cc1cc2c(C3CCCNC3)n[nH]c2cc1-c1ccc2ncnn2c1 (stereo not shown) ?
0.45

Request: log10(IC50), test system UniProt Q9NR97, entry CCc1cc(-c2cc(C)c3ncnn3c2)cc2[nH]nc(C3CCNCC3)c12
0.41

I'm curious: which log10(IC50) was measured for Cc1cc(-c2cc3[nH]nc(C4CCC(N5CCC6(COC6)C5)CC4)c3cc2C(C)C)cn2ncnc12 (single isomer, unassigned) [Example 160] tested on UniProt Q9NR97?
-0.40

Lookup: log10(IC50) / UniProt Q9NR97 / Cc1cc2c(C3CCCN(CC(=O)N(C)C)C3)n[nH]c2cc1-c1cc(C)c2ncnn2c1 (stereo not shown) [Example 41]
0.28

Give the reported log10(IC50) for Cc1cc2c(C3CCCNC3)n[nH]c2cc1-c1cn(C)c2ncccc12 (stereo not shown) (system: UniProt Q9NR97).
-0.70

I'm curious: which log10(IC50) was measured for Cc1cc(-c2cc3[nH]nc(C4CCN(C(=O)CN(C)C)CC4)c3cc2C(C)C)cn2ncnc12 tested on UniProt Q9NR97?
-0.30

Can you look up log10(IC50) on UniProt Q9NR97 for Cc1cc2c(OC3CCNCC3)n[nH]c2cc1-c1cc(C)c2ncnn2c1 ?
-0.70

Given the entry COc1cc(-c2cc3[nH]nc(C4CCN(C(=O)CN(C)C)CC4)c3cc2C(C)C)cn2ncnc12 , what log10(IC50) was observed with UniProt Q9NR97?
-0.30

Enter reported log10(IC50) observed with UniProt Q9NR97 for Cc1cc(-c2cc3[nH]nc(C4CCN(C5CCOCC5)CC4)c3cc2C(C)C)cn2ncnc12
-1.00

Form field: log10(IC50) recorded for Cc1cc2c(C3CCN(C4CCOCC4)CC3)n[nH]c2cc1-c1cc(C)c2ncnn2c1 with UniProt Q9NR97 (enter value)
-0.15
